Where these numbers come from: PubChem BioAssay (NCI)

# System: SNB-75 CNS
# MEASUREMENT DESCRIPTION: NCI tumour cell line growth inhibition, 48 h
MEASUREMENT NAME: TGI

Param readout= TGI; system= SNB-75 CNS; entry= O=C1/C(=C/c2cccc([N+](=O)[O-])c2)Cc2ccccc21 ; returns value.
> 100 µM

Report TGI for CCOC(=O)NC(C(F)(F)F)(C(F)(F)F)P(=O)(OCC)OCC tested on SNB-75 CNS.
> 100 µM

API: value(readout= TGI, system= SNB-75 CNS, query= O=C(O)C1C2C=CC(O2)C1C(=O)NCc1ccncc1 (stereo not given) )
> 100 µM

Request body: readout TGI, system SNB-75 CNS, query CCCCCCc1cc2cc(-c3cn4ccccc4n3)c(=O)oc2cc1O . Return the value.
8.81 µM

I'm curious: which TGI was measured for O=C(N/N=C/c1cc(Cl)cc(Cl)c1[OH2+])c1ccncc1.O=S(=O)([O-])[O-].[Fe+2] tested on SNB-75 CNS?
> 100 µM
